- assayInfo: Solubility in water by UV-visible spectrophotometry
- Type: physicochemical
- experimentalParameters: thermodynamic from solid, room temperature (21° C.), A270
observationType: solubility (µg/mL)

COc1ccc(S(=O)(=O)N[C@@H](C)C(=O)Oc2ccc(OC(=O)[C@H](C)NS(=O)(=O)c3ccc(OC)nc3)cc2)cn1
500

[A] C[C@H](NS(=O)(=O)c1cccnc1)C(=O)Oc1ccc(OC(=O)[C@H](C)NS(=O)(=O)c2cccnc2)cc1
[B] COC(=O)c1cncc(S(=O)(=O)N[C@@H](C)C(=O)Oc2ccc(OC(=O)[C@H](C)NS(=O)(=O)c3cncc(C(=O)OC)c3)cc2)c1
Exercise: Which gives the smaller solubility number: A or B ? Response format: the label of the selected entry.
Key: A
(A: 50 µg/mL, B: 4000 µg/mL)
